Numbers sourced from patent US20230235012A1.

# assayed.target: T1, human CD28, full-length, expressed on transfected Expi293 cells (human, UniProt P10747 19-220)
# T1 construct: whole, on cells
# measurement.notes: flow cytometry, 100 nM, Expi293 cells with human CD28
measured.metric: MFI

# annotated cases, reported MFI shown
{"columns": ["binder", "experimental.result"],
 "data": [
  ["variant ICOSL IgV-Fc fusion N52Q/N57F (Fc fusion) DTQEKEVRAMVGSDVELSCACPEGSRFDLNDVYVYWQTSESKTVVTYHIPQQSSLEFVDSRYRNRALMSPAGMLRGDFSLRLFNVTPQDEQKFHCLVLSQSLGFQEVLSVEVTLHVAANFSVGSGGGGSEPKSSDKTHTCPPCPAPEAEGAPSVFLFPPKPKDTLMISRTPEVTCVVVDVSHEDPEVKFNWYVDGVEVHNAKTKPREEQYNSTYRVVSVLTVLHQDWLNGKEYKCKVSNKALPAPIEKTISKAKGQPREPQVYTLPPSREEMTKNQVSLTCLVKGFYPSDIAVEWESNGQPENNYKTTPPVLDSDGSFFLYSKLTVDKSRWQQGNVFSCSVMHEALHNHYTQKSLSLSPG", "131000 MFI"],
  ["variant ICOSL IgV-Fc fusion N52C/N57E/Q100S (Fc fusion) DTQEKEVRAMVGSDVELSCACPEGSRFDLNDVYVYWQTSESKTVVTYHIPQCSSLEEVDSRYRNRALMSPAGMLRGDFSLRLFNVTPQDEQKFHCLVLSSSLGFQEVLSVEVTLHVAANFSVGSGGGGSEPKSSDKTHTCPPCPAPEAEGAPSVFLFPPKPKDTLMISRTPEVTCVVVDVSHEDPEVKFNWYVDGVEVHNAKTKPREEQYNSTYRVVSVLTVLHQDWLNGKEYKCKVSNKALPAPIEKTISKAKGQPREPQVYTLPPSREEMTKNQVSLTCLVKGFYPSDIAVEWESNGQPENNYKTTPPVLDSDGSFFLYSKLTVDKSRWQQGNVFSCSVMHEALHNHYTQKSLSLSPG", "13400 MFI"],
  ["wild-type ICOSL IgV-Fc fusion (Fc fusion, also called WT ICOSL) DTQEKEVRAMVGSDVELSCACPEGSRFDLNDVYVYWQTSESKTVVTYHIPQNSSLENVDSRYRNRALMSPAGMLRGDFSLRLFNVTPQDEQKFHCLVLSQSLGFQEVLSVEVTLHVAANFSVGSGGGGSEPKSSDKTHTCPPCPAPEAEGAPSVFLFPPKPKDTLMISRTPEVTCVVVDVSHEDPEVKFNWYVDGVEVHNAKTKPREEQYNSTYRVVSVLTVLHQDWLNGKEYKCKVSNKALPAPIEKTISKAKGQPREPQVYTLPPSREEMTKNQVSLTCLVKGFYPSDIAVEWESNGQPENNYKTTPPVLDSDGSFFLYSKLTVDKSRWQQGNVFSCSVMHEALHNHYTQKSLSLSPG", "22300 MFI"]
]}

Could you now look at the following binder, please?
Query: Could you tell me which MFI is on file for variant ICOSL IgV-Fc fusion N52Q/N57S/Q100A (Fc fusion) DTQEKEVRAMVGSDVELSCACPEGSRFDLNDVYVYWQTSESKTVVTYHIPQQSSLESVDSRYRNRALMSPAGMLRGDFSLRLFNVTPQDEQKFHCLVLSASLGFQEVLSVEVTLHVAANFSVGSGGGGSEPKSSDKTHTCPPCPAPEAEGAPSVFLFPPKPKDTLMISRTPEVTCVVVDVSHEDPEVKFNWYVDGVEVHNAKTKPREEQYNSTYRVVSVLTVLHQDWLNGKEYKCKVSNKALPAPIEKTISKAKGQPREPQVYTLPPSREEMTKNQVSLTCLVKGFYPSDIAVEWESNGQPENNYKTTPPVLDSDGSFFLYSKLTVDKSRWQQGNVFSCSVMHEALHNHYTQKSLSLSPG ?
Reply: 91300 MFI
